# EXPERIMENTAL SYSTEM: Cholecystokinin receptor type A (Rattus norvegicus, UniProt P30551)
# Sequence (P30551 whole entry): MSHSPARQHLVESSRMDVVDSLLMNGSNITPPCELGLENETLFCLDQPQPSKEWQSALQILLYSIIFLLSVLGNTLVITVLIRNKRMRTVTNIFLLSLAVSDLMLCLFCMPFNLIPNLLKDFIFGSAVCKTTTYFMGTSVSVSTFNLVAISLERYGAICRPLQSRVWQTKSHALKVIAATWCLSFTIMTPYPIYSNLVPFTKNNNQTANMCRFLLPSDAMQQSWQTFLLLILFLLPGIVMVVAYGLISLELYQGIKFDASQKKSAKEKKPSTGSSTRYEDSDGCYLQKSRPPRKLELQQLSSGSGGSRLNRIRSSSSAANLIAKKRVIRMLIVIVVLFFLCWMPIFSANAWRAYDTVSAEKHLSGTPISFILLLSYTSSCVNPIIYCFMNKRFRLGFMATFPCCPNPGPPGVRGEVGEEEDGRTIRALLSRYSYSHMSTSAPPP
Entries and their pKi values follow.
Lab note: report pKi as minus log10 of the concentration in molar units, number only.

Previously resolved entries follow.
MOLECULE | pKi
CC(C)CCN1C(=O)C(NC(=O)Nc2cccc(N(C)C)c2)C(=O)N(CC23CC4CC(CC(C4)C2)C3)c2ccccc21 (stereo not drawn) | 6.02
O=C(Nc1cccc(Cl)c1)NC1C(=O)N(CC23CC4CC(CC(C4)C2)C3)c2ccccc2N(C2CCCCC2)C1=O (stereo not drawn) | 6.62
CC(C)CCN1C(=O)C(NC(=O)Nc2cccc(N(C)C)c2)C(=O)N(CCC(C)C)c2ccccc21 | 7.08
CC(C)CCN1C(=O)C(NC(=O)Nc2ccccc2)C(=O)N(Cc2ccccc2)c2ccccc21 (stereo not drawn) | 7.18
CC(C)CCN1C(=O)C(NC(=O)Oc2ccccc2)C(=O)N(CC23CC4CC(CC(C4)C2)C3)c2ccccc21 (stereo not drawn) | 5.85

Lab note: need pKi for O=C(Nc1ccccc1)NC1C(=O)N(CC23CC4CC(CC(C4)C2)C3)c2ccccc2N(C2CCCCC2)C1=O (stereo not drawn) on Cholecystokinin receptor type A (Rattus norvegicus, UniProt P30551), anyone have it?
6.25

# returns recorded pKi (system: Cholecystokinin receptor type A (Rattus norvegicus, UniProt P30551)) for O=C(Nc1ccccc1)N[C@@H]1C(=O)N(CC23CC4CC(CC(C4)C2)C3)c2ccccc2N(c2ccccc2)C1=O (single isomer, unassigned; (+))
5.95

State its pKi on Cholecystokinin receptor type A (Rattus norvegicus, UniProt P30551): CC(C)CCN1C(=O)C(NC(=O)Oc2cccc(N(C)C)c2)C(=O)N(CC23CC4CC(CC(C4)C2)C3)c2ccccc21 (stereo not drawn)
5.80
